Origin of measurements: PubChem BioAssay

- test_description: S. cerevisiae growth inhibition in restrictive medium, OD615, pilot screen, restrictive growth control, yeast lifespan reduction project (AID 706);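 note: modified DeaD lifespan yeast strain shifted to restrictive glucose medium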
- condition_details: OD615, 48 h, at 10 µM
Activity calls are given as the source filed them.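 Rule for the calls: active = growth inhibition above a set limit, 3 SD over mean compound inhibition, in both replicates (cut at about 43% in these data); inconclusive = above the limit in only one replicate; inactive = at or below the limit in both replicates.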
Labels: active, inactive

molecule=COc1ccccc1N(CC(=O)Nc1cccnc1)S(C)(=O)=O classification=inactive
molecule=O=C(Nc1ccncc1)c1ccccc1F classification=inactive
molecule="CCCOCCOC(=O)c1[nH]c2c(c1C)C(=O)CC(c1cc(OC)ccc1OC)C2 (configuration not stated)" classification=inactive
molecule=Cc1ccc(OC(=O)CCC(=O)Nc2ccc(S(=O)(=O)Nc3cc(C)on3)cc2)cc1 classification=inactive
molecule="CS(=O)(=O)N(Cc1ccco1)CC(O)Cn1c2ccccc2c2ccccc21 (configuration not stated)" classification=inactive
molecule=COc1ccc(OC)c2sc(NC(=O)c3ccc(S(=O)(=O)N(C)C)cc3)nc12 classification=inactive
molecule=CCCCn1c(SCC(=O)OCC)nc2c1c(=O)[nH]c(=O)n2C classification=inactive
molecule="Cc1csc(NC(=O)C(Cc2ccccc2)n2cccc2)n1 (configuration not stated)" classification=inactive
molecule=CCOc1ccccc1C(=O)Nc1nnc(CC)s1 classification=inactive
molecule=Cc1cc(NC(=O)CS(=O)(=O)c2cn(Cc3cccc(F)c3)c3ccccc23)no1 classification=inactive
molecule="O=C(CSc1nnc(C2COc3ccccc3O2)o1)N1CCCCC1 (configuration not stated)" classification=inactive
molecule=CC1(C)CC(=O)c2cnc(NC(=O)Cc3ccc(Cl)cc3)nc2C1 classification=inactive
molecule=Cn1c(=O)[nH]c(=O)c2c1nc(N1CCCCC1)n2CCSc1ncccn1 classification=inactive
molecule=CN1CCN(c2cc3c(c4c2[nH]c2ccccc24)C(=O)CC(C)(C)C3)CC1 classification=inactive
molecule=CCN(CC)S(=O)(=O)c1ccc(Cl)c(C(=O)Nc2nnc(C)s2)c1 classification=inactive
molecule=Cc1ccccc1Cn1ccc(NC(=O)c2onc(C)c2Cl)n1 classification=inactive
molecule="CCOc1cc(C2CC(=O)N3CN(C4CCCCC4)CSC3=C2C#N)ccc1O (configuration not stated)" classification=active
